Biological target: TLR2 (Homo sapiens, UniProt O60603)
Sequence (O60603 21-784): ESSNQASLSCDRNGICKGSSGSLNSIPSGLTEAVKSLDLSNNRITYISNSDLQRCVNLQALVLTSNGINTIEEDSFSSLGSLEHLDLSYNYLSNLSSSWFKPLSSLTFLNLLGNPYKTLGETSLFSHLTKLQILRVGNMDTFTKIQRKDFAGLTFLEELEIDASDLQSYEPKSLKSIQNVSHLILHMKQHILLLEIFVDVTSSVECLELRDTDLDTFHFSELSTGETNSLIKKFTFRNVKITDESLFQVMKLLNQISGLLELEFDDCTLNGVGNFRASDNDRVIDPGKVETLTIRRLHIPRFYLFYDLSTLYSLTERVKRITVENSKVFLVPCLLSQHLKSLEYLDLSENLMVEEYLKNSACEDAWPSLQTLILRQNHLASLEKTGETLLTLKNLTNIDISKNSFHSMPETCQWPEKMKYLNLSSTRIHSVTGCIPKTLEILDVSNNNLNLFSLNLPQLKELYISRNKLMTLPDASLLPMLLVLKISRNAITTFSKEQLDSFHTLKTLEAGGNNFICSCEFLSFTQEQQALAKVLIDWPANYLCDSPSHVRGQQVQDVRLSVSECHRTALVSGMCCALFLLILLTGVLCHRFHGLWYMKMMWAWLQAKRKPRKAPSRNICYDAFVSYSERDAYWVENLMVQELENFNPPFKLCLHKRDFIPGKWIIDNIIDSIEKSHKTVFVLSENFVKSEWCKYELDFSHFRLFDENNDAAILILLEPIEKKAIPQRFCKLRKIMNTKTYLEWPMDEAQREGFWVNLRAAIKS
Experiment: TLR2 agonist screening assay, HEK-Blue TLR2 reporter cell line (NF-kB-driven SEAP, absorbance at 600 nm)
Assay type: cell-based
Set-up: host or cells: HEK-293 (HEK-Blue TLR2 reporter cell line)
Details: HEK-Blue TLR2 reporter cells, agonist mode; average of all runs (Table 4)
Result type: EC50

compound="CCCCCCCCCCCCCCNC(=O)[C@@H]1CN(C(=O)c2ccc(C(=O)N3C[C@@H](C(=O)N[C@H]4C[C@@H]4c4ccccc4)[C@H](C(=O)N[C@H]4C[C@@H]4c4ccccc4)C3)cc2)C[C@H]1NC [Compound 098]" test_system="TLR2 (Homo sapiens, UniProt O60603)" result="0.1 to 50 nM"

Next up:
Fill in EC50 for record CCCCCCCCCCCCCCNC(=O)[C@H]1CN(S(=O)(=O)c2ccc(C(=O)N3C[C@@H](C(=O)N[C@H]4C[C@@H]4c4ccccc4)[C@H](C(=O)N[C@H]4C[C@@H]4c4ccccc4)C3)cc2)CCN1C(C)=O [Compound 195] > 1000 nM

----------
Biological target: TLR2 (Homo sapiens, UniProt O60603)
Experiment: TLR2 agonist screening assay, HEK-Blue TLR2 reporter cell line (NF-kB-driven SEAP, absorbance at 600 nm)
Format: cell-based
Design: host or cells: HEK-293 (HEK-Blue TLR2 reporter cell line)
Details: HEK-Blue TLR2 reporter cells, agonist mode; average of all runs (Table 3)
pEC50: −log10 of the molar value.
// pEC50 lookup, one value per entry

molecule="CCCCCCCC(=O)N1CCN(C(=O)c2ccc(C(=O)N3C[C@@H](C(=O)N[C@H]4C[C@@H]4c4ccccc4)[C@H](C(=O)N[C@H]4C[C@@H]4c4ccccc4)C3)cc2)CC1C(=O)NCC (some centres unmarked) [Compound 048]" result_type=pEC50 result="6.00 to 6.45"
molecule="CCCCCCCNC(=O)[C@@H]1CN(C(=O)c2ccc(C(=O)N3C[C@@H](C(=O)N[C@H]4C[C@@H]4c4ccccc4)[C@H](C(=O)N[C@H]4C[C@@H]4c4ccccc4)C3)cc2)C[C@@H]1OCCCCCCC (relative stereo) [Compound 063]" result_type=pEC50 result="6.00 to 6.45"
molecule="CCCCCCCCCCCC(=O)N1CCN(C(=O)c2ccc(C(=O)N3C[C@@H](C(=O)N[C@H]4C[C@@H]4c4ccccc4)[C@H](C(=O)N[C@H]4C[C@@H]4c4ccccc4)C3)cc2)CC1C(=O)NCCCCCC (some centres unmarked) [Compound 057]" result_type=pEC50 result="6.46 to 7.29"
molecule="CCCCCCNC(=O)C[C@H](NC(=O)c1ccc(C(=O)N2C[C@@H](C(=O)N[C@H]3C[C@@H]3c3ccccc3)[C@H](C(=O)N[C@H]3C[C@@H]3c3ccccc3)C2)cc1)C(=O)NCCCCCC [Compound 014]" result_type=pEC50 result="< 6.00"

Return value of pEC50 for input CCCCCCCCOC1CN(C(=O)c2ccc(C(=O)N3C[C@@H](C(=O)N[C@H]4C[C@@H]4c4ccccc4)[C@H](C(=O)N[C@H]4C[C@@H]4c4ccccc4)C3)cc2)C[C@H]1OCCCCCCCC (some centres unmarked) [Compound 020] , no commentary. < 6.00

----------
// values below are reported EC50
Molecular target: TLR2 (Mus musculus, UniProt Q9QUN7)
Construct: endogenous in cells
Sequence (Q9QUN7 25-784): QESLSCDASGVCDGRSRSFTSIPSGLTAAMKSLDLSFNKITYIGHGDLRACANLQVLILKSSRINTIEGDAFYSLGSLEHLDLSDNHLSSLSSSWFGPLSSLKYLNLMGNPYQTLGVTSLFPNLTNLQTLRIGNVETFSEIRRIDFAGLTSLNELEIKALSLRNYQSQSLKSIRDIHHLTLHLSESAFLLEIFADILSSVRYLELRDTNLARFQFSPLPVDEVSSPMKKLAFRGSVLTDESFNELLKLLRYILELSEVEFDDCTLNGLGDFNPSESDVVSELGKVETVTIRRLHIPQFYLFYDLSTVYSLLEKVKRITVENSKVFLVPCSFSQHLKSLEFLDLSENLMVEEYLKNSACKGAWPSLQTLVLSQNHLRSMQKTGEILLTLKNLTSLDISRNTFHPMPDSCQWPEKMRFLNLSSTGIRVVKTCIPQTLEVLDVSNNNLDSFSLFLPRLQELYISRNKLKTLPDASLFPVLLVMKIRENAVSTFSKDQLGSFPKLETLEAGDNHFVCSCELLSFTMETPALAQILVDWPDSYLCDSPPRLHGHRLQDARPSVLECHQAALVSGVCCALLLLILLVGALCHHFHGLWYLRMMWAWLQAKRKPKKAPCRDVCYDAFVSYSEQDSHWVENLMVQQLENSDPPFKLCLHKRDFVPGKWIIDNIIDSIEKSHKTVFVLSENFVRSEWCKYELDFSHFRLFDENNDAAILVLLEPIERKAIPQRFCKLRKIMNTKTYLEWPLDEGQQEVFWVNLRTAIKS
Assay: TLR2 functional assay, cytokine release from RAW 264.7 mouse macrophage cell line
Conditions: average of all runs

compound="CCCCCCCNC(=O)[C@H](CNC(=O)c1ccc(C(=O)N2C[C@@H](C(=O)N[C@H]3C[C@@H]3c3ccccc3)[C@H](C(=O)N[C@H]3C[C@@H]3c3ccccc3)C2)cc1)NC(=O)CCCCCCC [Compound 184]" result="51 to 350 nM"
compound="CCCCCCCCCOC(=O)N[C@@H](CNC(=O)c1ccc(C(=O)N2C[C@@H](C(=O)N[C@H]3C[C@@H]3c3ccccc3)[C@H](C(=O)N[C@H]3C[C@@H]3c3ccccc3)C2)cc1)C(=O)NCCCCCC [Compound 229]" result="> 1000 nM"

// next entry
Provide only the value of recorded EC50 for CCCCCCCCCCCCOC(=O)N[C@H]1CN(C(=O)c2ccc(C(=O)N3C[C@@H](C(=O)N[C@H]4C[C@@H]4c4ccccc4)[C@H](C(=O)N[C@H]4C[C@@H]4c4ccccc4)C3)cc2)C[C@@H]1OC [Compound 216] > 1000 nM

----------
# pEC50 annotations
Molecular target: TLR2 (Homo sapiens)
Test: TLR2 agonist screening assay, HEK-Blue TLR2 reporter cell line (NF-kB-driven SEAP, absorbance at 600 nm)
Assay type: cell-based
Design: host or cells: HEK-293 (HEK-Blue TLR2 reporter cell line)
Details: HEK-Blue TLR2 reporter cells, agonist mode; average of all runs (Table 4)
pEC50: −log10 of the molar value.

Some solved entries appear below for comparison.
compound_smiles=CCCCCCCO[C@H]1CN(C(=O)c2ccc(C(=O)N3C[C@@H](C(=O)N[C@H]4C[C@@H]4c4ccccc4)[C@H](C(=O)N[C@H]4C[C@@H]4c4ccccc4)C3)cc2)C[C@@H]1NC(=O)NCCCCC result_type=pEC50 result="6.46 to 7.29"
compound_smiles=CCCCCCCCCCCCCCC(=O)N[C@H]1CCCN(C(=O)c2ccc(C(=O)N3C[C@@H](C(=O)N[C@H]4C[C@@H]4c4ccccc4)[C@H](C(=O)N[C@H]4C[C@@H]4c4ccccc4)C3)cc2)C1 result_type=pEC50 result="< 6.00"
compound_smiles=CCCCCCCCCCCCCCNC(=O)[C@@H]1CN(C(=O)c2ccc(C(=O)N3C[C@@H](C(=O)N[C@H]4C[C@@H]4c4ccccc4)[C@H](C(=O)N[C@H]4C[C@@H]4c4ccccc4)C3)cc2)CCN1C(=O)CC(C)(C)C result_type=pEC50 result="< 6.00"

Turning now to a further record.
Report pEC50 under test system TLR2 (Homo sapiens) for CCCCCCNC(=O)[C@@H](CCNC(=O)CCCCCC)NC(=O)c1ccc(C(=O)N2C[C@@H](C(=O)N[C@H]3C[C@@H]3c3ccccc3)[C@H](C(=O)N[C@H]3C[C@@H]3c3ccccc3)C2)cc1 . < 6.00

----------
Target: TLR2 (Homo sapiens)
Assay: TLR2 agonist screening assay, HEK-Blue TLR2 reporter cell line (NF-kB-driven SEAP, absorbance at 600 nm)
Format: cell-based
Design: host or cells: HEK-293 (HEK-Blue TLR2 reporter cell line)
Details: HEK-Blue TLR2 reporter cells, agonist mode; average of all runs (Table 3)
pEC50: −log10 of the molar value.
Measured pEC50 accompanies every entry in the list below.

Field: example entries. Status: answers known.
compound=CCCCCCNC(=O)[C@@H]1CN(C(=O)c2ccc(C(=O)N3C[C@@H](C(=O)N[C@H]4C[C@@H]4c4ccccc4)[C@H](C(=O)N[C@H]4C[C@@H]4c4ccccc4)C3)cc2)C[C@H]1NC(=O)CCCCCC result="< 6.00"
compound=CCCCCCNC(=O)[C@H](CNC(=O)CCCCCC)NC(=O)c1ccc(C(=O)N2C[C@@H](C(=O)N[C@H]3C[C@@H]3c3ccccc3)[C@H](C(=O)N[C@H]3C[C@@H]3c3ccccc3)C2)cc1 result="< 6.00"
compound="CCCCCCNC(=O)C1CN(C(=O)c2ccc(C(=O)N3C[C@@H](C(=O)N[C@H]4C[C@@H]4c4ccccc4)[C@H](C(=O)N[C@H]4C[C@@H]4c4ccccc4)C3)cc2)CCN1C(=O)CCC (stereo partly drawn)" result="6.00 to 6.45"
compound=O=C(N[C@H]1C[C@@H]1c1ccccc1)[C@@H]1CN(C(=O)c2cnc(C(=O)N3C[C@@H](C(=O)N[C@H]4C[C@@H]4c4ccccc4)[C@H](C(=O)N[C@H]4C[C@@H]4c4ccccc4)C3)nc2)C[C@H]1C(=O)N[C@H]1C[C@@H]1c1ccccc1 result="6.46 to 7.29"
compound="CCCCCCCC(=O)N1CCN(C(=O)c2ccc(C(=O)N3C[C@@H](C(=O)N[C@H]4C[C@@H]4c4ccccc4)[C@H](C(=O)N[C@H]4C[C@@H]4c4ccccc4)C3)cc2)CC1C(=O)N[C@H]1C[C@@H]1c1ccccc1 (stereo partly drawn)" result="< 6.00"

Determine reported pEC50 for CCCCCCCC(=O)N1CCN(C(=O)c2ccc(C(=O)N3C[C@@H](C(=O)N[C@H]4C[C@@H]4c4ccccc4)[C@H](C(=O)N[C@H]4C[C@@H]4c4ccccc4)C3)cc2)CC1C(=O)NCCCCC (stereo partly drawn) ; test system: TLR2 (Homo sapiens). 7.30 to 10.00

Report value only: pEC50, TLR2 (Homo sapiens), CCCCCCCNC(=O)[C@@H]1CN(C(=O)c2ccc(C(=O)N3C[C@@H](C(=O)N[C@H]4C[C@@H]4c4ccccc4)[C@H](C(=O)N[C@H]4C[C@@H]4c4ccccc4)C3)cc2)C[C@H]1OCCCCCCC (relative stereo) 6.46 to 7.29

Give measured pEC50 for CCCCCCCCCCCCCCNC(=O)C1CCN(C(=O)c2ccc(C(=O)N3C[C@@H](C(=O)N[C@H]4C[C@@H]4c4ccccc4)[C@H](C(=O)N[C@H]4C[C@@H]4c4ccccc4)C3)cc2)CC1 (TLR2 (Homo sapiens)). < 6.00

Quote TLR2 (Homo sapiens) pEC50 for entry CCCCCCNC(=O)[C@@H](CNC(=O)c1ccc(C(=O)N2C[C@@H](C(=O)N[C@H]3C[C@@H]3c3ccccc3)[C@H](C(=O)N[C@H]3C[C@@H]3c3ccccc3)C2)cc1)NC(=O)CCCCCC . < 6.00
